- protocol: Intrinsic clearance in human liver microsomes assessed per mg protein
- Assay type: ADME, Microsome
- settings: read-out: CLH
microsomal CLint for assorted compounds
Answer in µL/min/mg, number only, no unit symbol.

A selection of reference data follows.
>>> print(df.to_string())
                                   compound  numeric_value
0  CCCOc1cc([C@](O)(CCN(C)C)[C@@H](c2cc3cc(Br)ccc3nc2OC)c2ccnc(OC)c2OC)cc(OC)n1 (racemic)            8.2
1  COc1cc([C@](O)(CCN(C)C)[C@@H](c2cc3cc(C#N)ccc3nc2OC)c2ccnc(OC)c2OC)cc(OC(F)F)n1 (racemic)            2.5

What measured microsomal CLint goes with COc1cc([C@](O)(CCN(C)C)[C@@H](c2cc3cc(C#N)ccc3nc2OC)c2cccc(C)c2F)cc(OC(F)F)n1 (racemic) ? 0.6

Please give the measured microsomal CLint for this compound: CCOc1cc([C@](O)(CCN(C)C)[C@@H](c2cc3cc(Br)ccc3nc2OC)c2c(OC)cncc2OC)cc(OC(C)C)n1 (racemic) 1.1

Entry CCSc1cc([C@](O)(CCN(C)C)[C@@H](c2cc3cc(C#N)ccc3nc2OC)c2cccc(C)c2F)cc(SCC)n1 (racemic) has what microsomal CLint? 9.1

----------
- protocol: AUC (0 to infinity) in CD-1 mouse at 10 mg/kg, po via gavage administered as single dose
- Assay type: ADME, organism-based
- Parameters: dose 10 mg/kg, route oral, time infinity
- settings: in vivo
value-kind: AUC(0-inf) (ng·h/mL)
Quick reminder: number only, in ng·h/mL, skip the unit.

// below: answered molecules
In [3]: df
Out[3]:
                                   molecule  value_kind  numeric_value
0  COc1cccc([C@H](c2cc3cc(C#N)ccc3nc2OC)[C@@](O)(CCN(C)C)c2cc(SC)nc(SC)c2)c1F (racemic)  AUC(0-inf)           1100
1  CCSc1cc([C@](O)(CCN(C)C)[C@@H](c2cc3cc(Br)ccc3nc2OC)c2cccc(OC)c2F)cc(SCC)n1 (racemic)  AUC(0-inf)          11900
2  COc1cc([C@](O)(CCN(C)C)[C@@H](c2cc3cc(C#N)ccc3nc2OC)c2ccnc(OC)c2OC)cc(OC(F)F)n1 (racemic)  AUC(0-inf)           3000
3  CCSc1cc([C@](O)(CCN(C)C)[C@H](c2ccccc2)c2cc3cc(Br)ccc3nc2OC)cc(SCC)n1 (racemic)  AUC(0-inf)           4000
4  CCCOc1cc([C@](O)(CCN(C)C)[C@@H](c2cc3cc(Br)ccc3nc2OC)c2ccnc(OC)c2OC)cc(OC)n1 (racemic)  AUC(0-inf)          10900
5  COc1cc([C@](O)(CCN(C)C)[C@@H](c2cc3cc(C#N)ccc3nc2OC)c2cccc(C)c2F)cc(OC(F)F)n1 (racemic)  AUC(0-inf)           8600
6  CCOc1cc([C@](O)(CCN(C)C)[C@@H](c2cc3cc(Br)ccc3nc2OC)c2ccnc(OC)c2OC)cc(OC(C)C)n1 (racemic)  AUC(0-inf)          32000
7  COc1cc([C@](O)(CCN(C)C)[C@@H](c2cc3cc(C#N)ccc3nc2OC)c2ccnc(OC)c2OC)cc(N(C)C)n1 (racemic)  AUC(0-inf)           3300
8  CCOc1cc([C@](O)(CCN(C)C)[C@@H](c2cc3cc(Br)ccc3nc2OC)c2c(OC)cncc2OC)cc(OC(C)C)n1 (racemic)  AUC(0-inf)          33000
9  CCOc1cc([C@](O)(CCN(C)C)[C@@H](c2cc3cc(Br)ccc3nc2OC)c2ccnc(OC)c2OC)cc(OC)n1 (racemic)  AUC(0-inf)          12700

Form field: reported AUC(0-inf) of CCOc1cc([C@](O)(CCN(C)C)[C@@H](c2cc3cc(Br)ccc3nc2OC)c2cccc(OC)c2F)cc(OC)n1 (racemic) 4000

Give the measured AUC(0-inf) of COc1cccc([C@H](c2cc3cc(Br)ccc3nc2OC)[C@@](O)(CCN(C)C)c2cc(SC)nc(SC)c2)c1F (racemic) . 8400

Look up AUC(0-inf) for this molecule: CCSc1cc([C@](O)(CCN(C)C)[C@@H](c2cc3cc(C#N)ccc3nc2OC)c2cccc(C)c2F)cc(SCC)n1 (racemic) 4000

----------
# microsomal CLint per record follows
- protocol: Intrinsic clearance in mouse liver microsomes assessed per mg protein
- Assay type: ADME, Microsome
- settings: read-out: CLH
Answer with a number only, understood to be in µL/min/mg.

>>> print(df.to_string())
                                   molecule  numeric_value
0  COc1cc([C@](O)(CCN(C)C)[C@@H](c2cc3cc(Br)ccc3nc2OC)c2cccc(OC)c2F)cc(OC(C)C)n1 (racemic)              6
1  COc1cc([C@](O)(CCN(C)C)[C@@H](c2cc3cc(Br)ccc3nc2OC)c2ccnc(OC)c2OC)cc(OC2CCC2)n1 (racemic)            4.6
2  CCSc1cc([C@](O)(CCN(C)C)[C@H](c2ccccc2)c2cc3cc(Br)ccc3nc2OC)cc(SCC)n1 (racemic)             17
3  CCSc1cc([C@](O)(CCN(C)C)[C@@H](c2cc3cc(Br)ccc3nc2OC)c2cccc3c2OCO3)cc(SCC)n1 (racemic)             12
4  COc1cc([C@](O)(CCN(C)C)[C@@H](c2cc3cc(Br)ccc3nc2OC)c2ccnc(OC)c2OC)cc(OC(C)C)n1 (racemic)            6.7
5  COc1cc([C@](O)(CCN(C)C)[C@@H](c2cc3cc(Br)ccc3nc2OC)c2ccnc(OC)c2OC)cc(OC(F)F)n1 (racemic)            4.9
6  COc1cc([C@](O)(CCN(C)C)[C@@H](c2cc3cc(Br)ccc3nc2OC)c2cccc(OC)c2F)cc(SC)n1 (racemic)             20
7  CCOc1cc([C@](O)(CCN(C)C)[C@@H](c2cc3cc(Br)ccc3nc2OC)c2c(OC)cncc2OC)cc(OC(C)C)n1 (racemic)            2.3

Recorded microsomal CLint of CCCOc1cc([C@](O)(CCN(C)C)[C@@H](c2cc3cc(Br)ccc3nc2OC)c2ccnc(OC)c2OC)cc(OC)n1 (racemic) , please. 6.5

Entry COc1cc([C@](O)(CCN(C)C)[C@@H](c2cc3cc(C#N)ccc3nc2OC)c2cccc(OC)c2F)cc(SC)n1 (racemic) : reported microsomal CLint = ? 36

Tell me the measured microsomal CLint of COc1cc([C@](O)(CCN(C)C)[C@@H](c2cc3cc(C#N)ccc3nc2OC)c2ccnc(OC)c2OC)cc(N(C)C)n1 (racemic) , please. 16

Item CCSc1cc([C@](O)(CCN(C)C)[C@@H](c2cc3cc(C#N)ccc3nc2OC)c2cccc(OC)c2F)cc(SCC)n1 (racemic) has what recorded microsomal CLint? 27

----------
- protocol: Clearance in CD-1 mouse at 2 to 3 mg/kg, iv administered as single bolus dose
- Format: ADME, organism-based
- settings: in vivo
value-kind: clearance (mL/min/kg)
The answer is to be given in mL/min/kg; state only the numeric part.

State the recorded clearance for this entry: CCOc1cc([C@](O)(CCN(C)C)[C@@H](c2cc3cc(Br)ccc3nc2OC)c2cccc(OC)c2F)cc(OC)n1 (racemic) 19

So what's the measured clearance for this one? COc1cccc([C@H](c2cc3cc(Br)ccc3nc2OC)[C@@](O)(CCN(C)C)c2cc(SC)nc(SC)c2)c1F (racemic) 13

What clearance value was documented for this compound, COc1cc([C@](O)(CCN(C)C)[C@@H](c2cc3cc(C#N)ccc3nc2OC)c2ccnc(OC)c2OC)cc(OC(F)F)n1 (racemic) ? 24

// clearance lookup, key: COc1cc([C@](O)(CCN(C)C)[C@@H](c2cc3cc(Br)ccc3nc2OC)c2cccc(OC)c2F)cc(SC)n1 (racemic) 13

----------
This listing pairs molecules with measured microsomal CLint.
- protocol: Intrinsic clearance in mouse liver microsomes assessed per mg protein
- Type: ADME, Microsome
- settings: read-out: CLH
Just the number in µL/min/mg, nothing appended.

Please review the following examples before continuing.
                                   molecule  numeric_value
0  COc1nc2ccc(Br)cc2cc1[C@@H](c1ccnc(OC)c1OC)[C@@](O)(CCN(C)C)c1cc(SC)nc(SC)c1 (racemic)             10
1  COc1cc([C@](O)(CCN(C)C)[C@@H](c2cc3cc(C#N)ccc3nc2OC)c2ccnc(OC)c2OC)cc(OC(F)F)n1 (racemic)             11
2  COc1cc([C@](O)(CCN(C)C)[C@@H](c2cc3cc(C#N)ccc3nc2OC)c2cccc(C)c2F)cc(OC(F)F)n1 (racemic)            5.9
3  COc1cccc([C@H](c2cc3cc(C#N)ccc3nc2OC)[C@@](O)(CCN(C)C)c2cc(SC)nc(SC)c2)c1F (racemic)             20
4  COc1cccc([C@H](c2cc3cc(Br)ccc3nc2OC)[C@@](O)(CCN(C)C)c2cc(SC)nc(SC)c2)c1F (racemic)             17

Bench note: what microsomal CLint did CCSc1cc([C@](O)(CCN(C)C)[C@@H](c2cc3cc(Br)ccc3nc2OC)c2cccc(OC)c2F)cc(SCC)n1 (racemic) show? 12

// microsomal CLint lookup, key: CCOc1cc([C@](O)(CCN(C)C)[C@@H](c2cc3cc(Br)ccc3nc2OC)c2ccnc(OC)c2OC)cc(OC)n1 (racemic) 7.6

Entry CCOc1cc([C@](O)(CCN(C)C)[C@@H](c2cc3cc(Br)ccc3nc2OC)c2ccnc(OC)c2OC)cc(OC(C)C)n1 (racemic) : reported microsomal CLint = ? 1.6
